biological target: Sigma non-opioid intracellular receptor 1 (Cavia porcellus, UniProt Q60492); test: Displacement of (+)-[3H]pentazocine from sigma 1 receptor in guinea pig brain membrane homogenates after 90 mins by liquid scintillation counting
Sequence (Q60492 whole entry): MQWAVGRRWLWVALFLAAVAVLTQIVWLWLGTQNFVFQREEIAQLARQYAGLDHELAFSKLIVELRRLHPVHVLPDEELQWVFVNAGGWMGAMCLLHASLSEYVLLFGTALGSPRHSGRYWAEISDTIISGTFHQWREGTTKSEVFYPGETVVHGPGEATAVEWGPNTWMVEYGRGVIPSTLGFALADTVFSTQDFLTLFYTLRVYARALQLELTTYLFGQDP
Give measured pKi for each item. Keep answers brief.
One number for each entry, as −log10 of the molar value.

O=C(c1ccc(F)cc1)C1CCN([C@H]2CCN(C(=O)c3ccc(F)cc3)C[C@@H]2O)CC1
5.50
COc1ccc(C(=O)C2CCN([C@H]3CN(Cc4cccnc4)CC[C@@H]3O)CC2)cc1
5.65
O=C(c1ccc(F)cc1)C1CCN([C@H]2CCN(Cc3ccc(F)cc3)C[C@@H]2O)CC1
9.32
COc1ccc(C(=O)C2CCN([C@H]3CN(Cc4ccccc4)CC[C@@H]3O)CC2)cc1
6.68

Now look at this entry.
Fill in pKi for record O=C(c1ccc(F)cc1)C1CCN([C@H]2CN(Cc3cccnc3)CC[C@@H]2O)CC1 5.94

====

Biological target: Vesicular acetylcholine transporter (Homo sapiens, UniProt Q16572)
Sequence (Q16572 whole entry): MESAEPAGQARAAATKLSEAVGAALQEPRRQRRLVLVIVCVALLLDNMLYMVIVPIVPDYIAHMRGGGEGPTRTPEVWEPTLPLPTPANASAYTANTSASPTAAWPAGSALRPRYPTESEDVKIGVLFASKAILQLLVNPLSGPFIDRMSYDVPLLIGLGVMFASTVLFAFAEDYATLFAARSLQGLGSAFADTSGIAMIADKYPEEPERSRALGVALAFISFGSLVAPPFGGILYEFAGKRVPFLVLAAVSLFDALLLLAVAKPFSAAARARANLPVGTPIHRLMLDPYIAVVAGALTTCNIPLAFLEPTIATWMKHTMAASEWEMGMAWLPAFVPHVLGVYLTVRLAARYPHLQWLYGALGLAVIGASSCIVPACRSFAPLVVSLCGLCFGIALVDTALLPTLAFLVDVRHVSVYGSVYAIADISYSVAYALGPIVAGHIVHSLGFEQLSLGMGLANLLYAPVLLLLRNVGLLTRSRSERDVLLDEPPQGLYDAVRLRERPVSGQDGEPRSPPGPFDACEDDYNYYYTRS
Give measured pKi for each item. Keep answers brief.
Numbers only, as −log10 of the molar value.

COc1ccc(C(=O)C2CCN([C@H]3CN(Cc4cccnc4)CC[C@@H]3O)CC2)cc1
6.97

Fill in pKi for record O=C(c1ccc(F)cc1)C1CCN([C@H]2CN(Cc3cccnc3)CC[C@@H]2O)CC1 6.63

====

target: D(2) dopamine receptor (Homo sapiens); assay: Displacement of [125I]IABN from human dopamine D2 long receptor expressed in HEK293 cells after 60 mins by gamma counting
Sequence (P14416 whole entry): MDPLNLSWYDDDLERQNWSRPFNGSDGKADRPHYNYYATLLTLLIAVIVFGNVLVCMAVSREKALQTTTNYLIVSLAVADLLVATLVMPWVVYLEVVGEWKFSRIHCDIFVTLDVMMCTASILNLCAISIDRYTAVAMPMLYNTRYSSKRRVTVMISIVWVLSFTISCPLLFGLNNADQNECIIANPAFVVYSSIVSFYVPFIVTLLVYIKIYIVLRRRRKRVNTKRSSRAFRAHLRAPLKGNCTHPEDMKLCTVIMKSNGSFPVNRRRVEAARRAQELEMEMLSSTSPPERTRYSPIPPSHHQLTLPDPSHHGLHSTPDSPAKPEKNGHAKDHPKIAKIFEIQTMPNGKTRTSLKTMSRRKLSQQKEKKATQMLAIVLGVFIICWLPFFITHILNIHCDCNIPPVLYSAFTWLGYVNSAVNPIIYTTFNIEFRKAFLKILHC
observed.property: pKi
Give bare numbers, as −log10 of the molar value.

COc1ccc(C(=O)C2CCN([C@H]3CCN(Cc4ccc(F)cc4)C[C@@H]3O)CC2)cc1
5.83

Now look at this entry.
Fill in pKi for record O=C(c1ccc(F)cc1)C1CCN([C@H]2CCN(Cc3ccc(F)cc3)C[C@@H]2O)CC1 5.87

Reference for the values: BindingDB's records for doi:10.1021/jm200203f
